Assay: protein stability index of a GFP-peptide fusion (GPS, HEK-293T) (PSI 1-6); higher = more stable;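 further: 24-mer peptide tiles fused after GFP, lentivirally expressed, FACS-sorted into six equal bins by GFP/DsRed ratio, decoded by Illumina sequencing, PSI is the read-weighted mean bin number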
Details: treatment: DMSO; c terminus: a fixed tail appended
valueKind: protein stability index
Write the number on its own, no unit after it.

Please list protein stability index recorded for the sequence QKVLGKALSLIRFPLMTIEEFAAG [BTBD1]
3.06

Identify protein stability index associated with the sequence ASYSGKAADVWSLGVALFTMLAGH [TRIB3]
2.99

Assign protein stability index to the following record: EILTCGRDGEPEPMQKLQDLVNRT [RBBP5]
4.01

----------
Recorded protein stability index, one value per entry.
Test: protein stability index of a GFP-peptide fusion (GPS, HEK-293T) (PSI 1-6); higher = more stable
Settings: treatment: MLN4924 1 uM, 8 h; c terminus: a fixed tail appended
# output: bare number, no unit

Some sequences with recorded protein stability index:
>>> df
                        itemsequence                valuekind  numericresult
0    LHQTVERIHVGKKYGDIPRGIFVV [LSM1]  protein stability index           2.59
1   PRRRRPGCYAYRQNPEAIAAAAMY [MYORG]  protein stability index            2.9
2  TWESKNILAVSFAPLVQPSKNDNG [PCMTD1]  protein stability index            3.6
3    FQVPVLCAVMNVVFITILIIALIA [CD69]  protein stability index           2.96

Return protein stability index (reported value) for this sequence: ADDESLLRTSNGQPVKTAGEITQH [DNAAF3]
5.26

Complete the entry with protein stability index for AEAEPEDQDEGEWGLDQEQVFSLG [ZBED1]
5.52

Name the recorded protein stability index of the sequence listed here: ETLQPSVWFGGREHVLMFAKLALY [TMEM175]
2.44

----------
Assay: protein stability index of a GFP-peptide fusion (GPS, HEK-293T) (PSI 1-6); higher = more stable
Conditions: treatment: MLN4924 1 uM, 8 h; c terminus: a fixed tail appended
valueKind: protein stability index
Answer as a number with no unit attached.

In [3]: df
Out[3]:
                         itemsequence  numericresult
0  EAACNDVDRWPAPVPGKTLHLPIM [DENND6A]           3.19

Tell me measured protein stability index for ESLMALCTDFCLRNLDGTLGYLLD [ZER1] please.
2.94

Please report protein stability index for the following sequence: PQPDPVFLEALSSRYLGDSGLDDF [SERTAD3]
4.08

Assign protein stability index to the following record: KPILLHQVEALAAAGVDHVILAVS [GMPPB]
2.61

----------
Assay: protein stability index of a GFP-peptide fusion (GPS, HEK-293T) (PSI 1-6); higher = more stable
Conditions: treatment: MLN4924 1 uM, 8 h; c terminus: a fixed tail appended
We use 3 as the dividing line for protein stability index: on or above the line is 1, below is -1.

Consider the worked cases shown below.
In [3]: df
Out[3]:
                        itemsequence  label
0   EDGEDFNLGDALDSSNSMQTIQKT [KRT18]      1
1     DGSTYKIELEGISVMVMREILDYI [GAN]     -1
2    QTEKLLQFQDLTGIESMDQCRHTL [FAF2]      1
3   SSLPGHAAKTLPGGAGKGRTPSAF [EHMT1]      1
4   QVAKTKQQIEEQRVQVQVVERAQQ [FLOT1]      1
5    VAAELLNHLLESMPLREGSSFQDL [HES6]      1
6   ARIRSHSWLESCIVGWRCRVGQWV [GMPPB]     -1
7    NPQRQGLLKTPWRAASAMQFFTKG [GCH1]     -1
8  QQTGDDDEVDDFEDFIFSHFFGDK [PBXIP1]      1
9   KLPPYLIFCIKRFTKNNFFVEKNP [USP39]     -1

Please check the record GLEEADAEVSVISEADPQALLQAM [FBF1] and state if its protein stability index is at or above 3.
1

Quick check: does SLYILRGSARYDFSHEILRDEESF [ALKBH7] have protein stability index greater than or equal to 3?
-1

Item AVCMFLASKLKETSPLTAEKLCIY [CCND2] with protein stability index of 3 or above?
-1

Is protein stability index at least 3? Consider EEEERDQALQAKASLTIPLVPETE [YJU2B]
1

Quick check: does RAGEGFIICYSITDRRSFHEVREF [RIT1] have protein stability index greater than or equal to 3?
-1

Would you say ASQPVKKQQENATSCSLELIGDLI [WDR41] shows protein stability index at minimum 3?
1

Is the recorded value of protein stability index equal to or greater than 3 for this sequence? DDFDEDELMAELEELEQEELNKKM [CHMP4C]
1

Answer whether protein stability index of FRFDKPKKSRSPASAEAPGDSGER [ZNF511] is greater than or equal to 3.
1

Is protein stability index at least 3? Consider DCPKIVEPHGKMFNEQTWEVSQQD [ZSCAN9]
1

Determine whether measured protein stability index meets or exceeds 3 for RELLLDGGYLQRTTYDRRSSQERK [RSPH3]
1

Kindly determine if protein stability index recorded for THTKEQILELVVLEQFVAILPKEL [ZNF24] is above or exactly 3.
-1
